Reported melting point values follow for various compounds

Reference set (5 entries):
COc1ccc(C2=NN(C3CCN(S(=O)(=O)c4ccc(C#N)cc4)CC3)C(=O)C(C)(C)C2)cc1OC 161 to 163 °C
COc1ccc(C2=NN(C3CCN(C(=O)c4ccccc4OC)CC3)C(=O)C(C)(C)C2)cc1OC 157 to 159 °C
COc1ccc(C2=NN(C3CCN(C(=O)CN4C(=O)CCC4=O)CC3)C(=O)C(C)(C)C2)cc1OC 177 to 179 °C
COc1ccc(C2=NN(C3CCN(C(=O)CN4CCN(C)CC4)CC3)C(=O)C(C)(C)C2)c2c1OC(C)(C)C2 121 to 123 °C
CCC1(CC)CC(c2ccc(OC)c(OC)c2)=NN(C2CCN(CC(N)=O)CC2)C1=O.Cl 69 to 74 °C

Look up melting point: COc1ccc(C2=NN(C3CCN(S(=O)(=O)c4cccc(C#N)c4)CC3)C(=O)C(C)(C)C2)cc1OC
158 to 160 °C

----------
readout label: melting point

Reference set (3 entries):
compound	melting point
COc1ccc(C2=NN(C3CCN(CC(N)=O)CC3)C(=O)C(C)(C)C2)c2c1OC(C)(C)C2 [Compound 13]	215 to 216 °C
CCC1(CC)CC(c2ccc(OC)c(OC)c2)=NN(C2CCN(C(=O)c3ccccc3)CC2)C1=O [Compound 14]	160 to 161 °C
COc1ccc(C2=NN(C3CCN(C(=O)CN4C(=O)CCC4=O)CC3)C(=O)C(C)(C)C2)c2c1OC(C)(C)C2 [Compound 20]	240 to 241 °C

Can you share its melting point? I mean this compound: COc1ccc(C2=NN(C3CCN(S(=O)(=O)N(C)C)CC3)C(=O)C(C)(C)C2)cc1OC [Compound 12]
172 to 174 °C

Which melting point value belongs to COc1ccc(C2=NN(C3CCN(S(=O)(=O)c4ccccc4OC(F)(F)F)CC3)C(=O)C(C)(C)C2)cc1OC [Compound 7] ?
143 to 144 °C

Any idea what melting point was measured for COc1ccc(C2=NN(C3CCN(CCC(=O)N4CCOCC4)CC3)C(=O)C(C)(C)C2)cc1OC.Cl [Compound 2] ?
211 to 213 °C

Fill blank: measured melting point of the compound CCC1(CC)CC(c2ccc(OC)c(OC)c2)=NN(C2CCN(C(=O)c3ccccc3OC)CC2)C1=O [Compound 18] is ____.
160 to 162 °C

----------
readout label: melting point

Use the examples below as a reference point.
CCC1(CC)CC(c2ccc(OC)c(OC)c2)=NN(C2CCN(S(=O)(=O)c3ccccc3C#N)CC2)C1=O 156 to 157 °C
COc1ccc(C2=NN(C3CCN(C(=O)CN4C(=O)c5ccccc5C4=O)CC3)C(=O)C(C)(C)C2)cc1OC 193 to 194 °C
COc1ccc(C2=NN(C3CCN(S(=O)(=O)c4ccccc4C)CC3)C(=O)C(C)(C)C2)cc1OC 132 to 133 °C
COc1ccc(C2=NN(C3CCN(C(=O)CN4C(=O)COCC4=O)CC3)C(=O)C(C)(C)C2)cc1OC 210 to 211 °C
COc1ccc(C2=NN(C3CCN(S(=O)(=O)c4ccccc4C#N)CC3)C(=O)C(C)(C)C2)cc1OC 190 to 192 °C
COc1ccc(C2=NN(C3CCN(S(=O)(=O)c4cccc(C)c4)CC3)C(=O)C(C)(C)C2)cc1OC 150 to 152 °C

Now for the compound whose melting point we want.
What measured melting point goes with COc1ccc(C2=NN(C3CCN(S(=O)(=O)c4ccc(C)cc4)CC3)C(=O)C(C)(C)C2)cc1OC ?
161 to 164 °C
